Species on record: Homo sapiens
Assay: Selectivity factor, ratio of IC50 for human recombinant PDE2A to IC50 for human recombinant PDE10A1
List of Ratio IC50 values.
measure.name: Ratio IC50

1. COc1cc(-c2cccnc2)cc2c1nc(C)c1c(C)nc(-c3ccc(F)nc3)n12 = 90
2. COc1cc(C#N)cc2c1nc(C)c1c(C)nc(-c3cccnc3F)n12 = 58
3. COc1cc(-c2ccncc2)cc2c1nc(C)c1c(C)nc(-c3ccc(F)nc3)n12 = 164
4. COc1cc(-c2ccc(F)nc2)cc2c1nc(C)c1c(C)nc(-c3ccc(F)nc3)n12 = 120
5. COc1cc(-c2cccnc2F)cc2c1nc(C)c1c(C)nc(-c3cccnc3F)n12 = 43
6. COc1cc(-c2ccnc(F)c2)cc2c1nc(C)c1c(C)nc(-c3ccnc(F)c3)n12 = 306
7. COc1cc(-c2ccc(F)nc2)cc2c1nc(C)c1c(C)nc(-c3cccnc3)n12 = 88
8. COc1cc(-c2cccnc2)cc2c1nc(C)c1c(C)nc(-c3cccnc3F)n12 = 94
9. COc1cc(-c2cccnc2)cc2c1nc(C)c1c(C)nc(-c3cccnc3)n12 = 99
10. COc1cc(Br)cc2c1nc(C)c1c(C)nc(-c3cccnc3F)n12 = 199
11. COc1cc(-c2ccc(F)nc2)cc2c1nc(C)c1c(C)nc(-c3ccncc3)n12 = 160
12. COc1cc(-c2cccnc2)cc2c1nc(C)c1c(C)nc(-c3ccnc(F)c3)n12 = 102

----------
Recorded IC50 values for a group of compounds are listed next.
Target: 3',5'-cyclic-AMP phosphodiesterase 7B (Homo sapiens)
Sequence (Q9NP56 whole entry): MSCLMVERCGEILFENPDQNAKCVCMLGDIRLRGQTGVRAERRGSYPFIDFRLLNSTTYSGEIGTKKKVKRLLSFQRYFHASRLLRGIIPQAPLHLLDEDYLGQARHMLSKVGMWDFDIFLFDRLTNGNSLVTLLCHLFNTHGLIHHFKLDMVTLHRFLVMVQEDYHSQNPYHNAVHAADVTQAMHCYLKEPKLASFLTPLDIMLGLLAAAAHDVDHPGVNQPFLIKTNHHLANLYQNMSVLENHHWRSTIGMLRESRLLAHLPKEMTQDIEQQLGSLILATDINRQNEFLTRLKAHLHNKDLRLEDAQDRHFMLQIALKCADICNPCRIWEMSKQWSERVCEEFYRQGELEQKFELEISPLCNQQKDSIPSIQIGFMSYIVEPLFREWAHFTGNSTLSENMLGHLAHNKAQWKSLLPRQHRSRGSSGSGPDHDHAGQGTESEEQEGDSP
measure.name: IC50

1. COc1cc(Br)cc2c1nc(C)c1c(C)nc(-c3ccc(F)nc3)n12 = > 1000 nM
2. COc1cc(-c2ccc(F)nc2)cc2c1nc(C)c1c(C)nc(-c3ccc(F)nc3)n12 = > 1000 nM
3. COc1cc(-c2cccnc2)cc2c1nc(C)c1c(C)nc(-c3ccc(F)nc3)n12 = > 1000 nM
4. COc1cc(-c2ccc(F)nc2)cc2c1nc(C)c1c(C)nc(-c3cccnc3)n12 = > 1000 nM
5. COc1cc(-c2ccncc2)cc2c1nc(C)c1c(C)nc(-c3ccc(F)nc3)n12 = < 1000 nM

----------
Below, each of the compounds is paired with its reported pIC50 value.
Molecular target: cGMP-dependent 3',5'-cyclic phosphodiesterase (Homo sapiens, UniProt O00408)
Sequence (O00408 whole entry): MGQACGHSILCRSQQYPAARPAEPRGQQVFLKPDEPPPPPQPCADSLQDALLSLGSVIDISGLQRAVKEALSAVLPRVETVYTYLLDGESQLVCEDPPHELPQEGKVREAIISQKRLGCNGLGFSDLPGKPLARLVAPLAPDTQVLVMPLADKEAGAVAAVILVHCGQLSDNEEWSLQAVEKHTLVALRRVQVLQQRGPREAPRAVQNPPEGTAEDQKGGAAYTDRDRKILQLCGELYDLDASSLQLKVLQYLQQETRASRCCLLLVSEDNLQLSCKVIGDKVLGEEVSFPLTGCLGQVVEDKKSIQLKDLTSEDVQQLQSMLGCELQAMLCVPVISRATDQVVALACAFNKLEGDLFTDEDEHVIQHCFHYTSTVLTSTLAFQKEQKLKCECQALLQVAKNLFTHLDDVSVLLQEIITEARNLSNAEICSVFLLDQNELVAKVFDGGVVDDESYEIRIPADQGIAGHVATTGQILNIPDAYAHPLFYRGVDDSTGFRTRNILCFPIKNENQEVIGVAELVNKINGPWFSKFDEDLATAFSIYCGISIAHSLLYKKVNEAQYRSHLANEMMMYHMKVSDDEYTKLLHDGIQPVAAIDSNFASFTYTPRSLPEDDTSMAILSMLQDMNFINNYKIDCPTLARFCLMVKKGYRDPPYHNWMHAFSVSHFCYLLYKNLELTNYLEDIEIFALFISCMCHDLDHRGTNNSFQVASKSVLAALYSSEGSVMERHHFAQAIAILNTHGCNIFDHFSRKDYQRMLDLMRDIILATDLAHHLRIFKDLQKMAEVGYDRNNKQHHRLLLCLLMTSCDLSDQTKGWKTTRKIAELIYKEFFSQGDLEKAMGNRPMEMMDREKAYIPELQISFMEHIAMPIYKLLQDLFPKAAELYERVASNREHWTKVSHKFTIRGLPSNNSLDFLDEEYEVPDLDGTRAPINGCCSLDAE
Assay: Inhibition of cGMP activated human recombinant PDE2A using [3H]cAMP as substrate after 30 mins by scintillation proximity assay
pIC50: −log10 of the molar value.
measure.name: pIC50

1) COc1cc(-c2ccc(F)nc2)cc2c1nc(C)c1c(C)nc(-c3cccnc3)n12 = 7.53
2) COc1cc(-c2ccnc(F)c2)cc2c1nc(C)c1c(C)nc(-c3ccnc(F)c3)n12 = 6.32
3) COc1cc(C#N)cc2c1nc(C)c1c(C)nc(-c3cccnc3F)n12 = 7.01
4) COc1cc(-c2ccc(F)nc2)cc2c1nc(C)c1c(C)nc(-c3ccc(F)nc3)n12 = 6.40
5) COc1cc(-c2cccnc2F)cc2c1nc(C)c1c(C)nc(-c3cccnc3F)n12 = 8.69
6) COc1cc(-c2ccc(F)nc2)cc2c1nc(C)c1c(C)nc(-c3ccncc3)n12 = 7.18
7) COc1cc(-c2ccncc2)cc2c1nc(C)c1c(C)nc(-c3ccc(F)nc3)n12 = 6.79
8) COc1cc(-c2cccnc2)cc2c1nc(C)c1c(C)nc(-c3cccnc3)n12 = 7.96

----------
For 3',5'-cyclic-AMP phosphodiesterase 4A (Homo sapiens), measured pIC50 is reported for the entries below.
pIC50: −log10 of the molar value.
measure.name: pIC50

1. COc1cc(-c2cccnc2)cc2c1nc(C)c1c(C)nc(-c3ccc(F)nc3)n12 = < 6.00
2. COc1cc(-c2cccnc2)cc2c1nc(C)c1c(C)nc(-c3cccnc3F)n12 = > 6.00
3. COc1cc(-c2ccc(F)nc2)cc2c1nc(C)c1c(C)nc(-c3ccc(F)nc3)n12 = < 6.00

----------
Molecular target: cAMP and cAMP-inhibited cGMP 3',5'-cyclic phosphodiesterase 10A (Homo sapiens, UniProt Q9Y233)
Sequence (Q9Y233 whole entry): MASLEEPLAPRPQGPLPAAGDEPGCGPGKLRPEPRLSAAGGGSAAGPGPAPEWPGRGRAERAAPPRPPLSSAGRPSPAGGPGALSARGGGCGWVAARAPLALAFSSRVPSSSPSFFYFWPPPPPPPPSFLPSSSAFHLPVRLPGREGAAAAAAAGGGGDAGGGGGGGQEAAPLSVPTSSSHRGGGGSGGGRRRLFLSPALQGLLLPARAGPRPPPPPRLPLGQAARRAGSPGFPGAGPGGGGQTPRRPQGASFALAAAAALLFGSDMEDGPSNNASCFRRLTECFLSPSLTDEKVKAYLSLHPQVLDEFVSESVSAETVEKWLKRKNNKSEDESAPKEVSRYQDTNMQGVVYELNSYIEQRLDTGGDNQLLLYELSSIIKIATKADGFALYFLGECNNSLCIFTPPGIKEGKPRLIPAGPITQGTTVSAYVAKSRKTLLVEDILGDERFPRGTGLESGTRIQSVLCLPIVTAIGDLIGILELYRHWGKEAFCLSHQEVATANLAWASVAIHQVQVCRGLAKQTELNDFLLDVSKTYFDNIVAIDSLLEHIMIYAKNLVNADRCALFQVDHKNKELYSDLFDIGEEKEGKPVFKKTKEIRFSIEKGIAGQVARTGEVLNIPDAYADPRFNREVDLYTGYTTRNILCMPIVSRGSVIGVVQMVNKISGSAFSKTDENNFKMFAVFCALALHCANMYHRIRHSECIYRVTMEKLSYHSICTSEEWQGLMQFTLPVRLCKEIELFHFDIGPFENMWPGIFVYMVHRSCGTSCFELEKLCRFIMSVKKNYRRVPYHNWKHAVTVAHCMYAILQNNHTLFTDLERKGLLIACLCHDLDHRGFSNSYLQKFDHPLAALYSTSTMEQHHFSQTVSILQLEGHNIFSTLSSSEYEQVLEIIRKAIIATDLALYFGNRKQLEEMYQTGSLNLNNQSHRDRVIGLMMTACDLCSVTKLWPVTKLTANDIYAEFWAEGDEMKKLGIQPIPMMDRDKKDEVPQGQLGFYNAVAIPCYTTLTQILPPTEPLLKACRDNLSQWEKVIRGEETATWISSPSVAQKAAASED
Test: Inhibition of human recombinant PDE10A1 expressed in baculovirus infected insect SF21 cells using [3H]cAMP as substrate after 30 mins by scintillation proximity assay
Label true when IC50 is strictly below 0.4 nM; at or above that, label false.

1. COc1cc(-c2cccnc2)cc2c1nc(C)c1c(C)nc(-c3cccnc3F)n12 = true
2. COc1cc(C#N)cc2c1nc(C)c1c(C)nc(-c3ccc(F)nc3)n12 = false
3. COc1cc2ncnc(N3CC[C@@H](Oc4cnc5ccccc5n4)C3)c2cc1OC = false
4. COc1cc(-c2ccncc2)cc2c1nc(C)c1c(C)nc(-c3ccc(F)nc3)n12 = false
5. COc1cc(-c2cccnc2F)cc2c1nc(C)c1c(C)nc(-c3cccnc3F)n12 = true
6. COc1cc(-c2cccnc2)cc2c1nc(C)c1c(C)nc(-c3ccc(F)nc3)n12 = false
7. COc1cc(-c2ccnc(F)c2)cc2c1nc(C)c1c(C)nc(-c3ccnc(F)c3)n12 = false
8. COc1cc(-c2ccc(F)nc2)cc2c1nc(C)c1c(C)ncn12 = false
9. COc1cc(-c2cccnc2)cc2c1nc(C)c1c(C)nc(-c3cccnc3)n12 = true
10. COc1cc(-c2ccc(F)nc2)cc2c1nc(C)c1c(C)nc(-c3cccnc3)n12 = true
11. COc1cc(Br)cc2c1nc(C)c1c(C)nc(-c3ccnc(F)c3)n12 = false
12. COc1cc(-c2ccc(F)nc2)cc2c1nc(C)c1c(C)nc(Br)n12 = false
13. COc1cc(C#N)cc2c1nc(C)c1c(C)nc(-c3cccnc3F)n12 = false
14. COc1cc(-c2cccnc2)cc2c1nc(C)c1c(C)nc(-c3ccnc(F)c3)n12 = false
15. COc1cc(Br)cc2c1nc(C)c1c(C)nc(-c3cccnc3F)n12 = true
16. COc1cc(-c2ccc(F)nc2)cc2c1nc(C)c1c(C)nc(-c3ccc(F)nc3)n12 = false
17. COc1cc(Br)cc2c1nc(C)c1c(C)nc(-c3ccc(F)nc3)n12 = false

----------
Quick record: IC50, UniProt O76083.
Sequence (O76083 whole entry): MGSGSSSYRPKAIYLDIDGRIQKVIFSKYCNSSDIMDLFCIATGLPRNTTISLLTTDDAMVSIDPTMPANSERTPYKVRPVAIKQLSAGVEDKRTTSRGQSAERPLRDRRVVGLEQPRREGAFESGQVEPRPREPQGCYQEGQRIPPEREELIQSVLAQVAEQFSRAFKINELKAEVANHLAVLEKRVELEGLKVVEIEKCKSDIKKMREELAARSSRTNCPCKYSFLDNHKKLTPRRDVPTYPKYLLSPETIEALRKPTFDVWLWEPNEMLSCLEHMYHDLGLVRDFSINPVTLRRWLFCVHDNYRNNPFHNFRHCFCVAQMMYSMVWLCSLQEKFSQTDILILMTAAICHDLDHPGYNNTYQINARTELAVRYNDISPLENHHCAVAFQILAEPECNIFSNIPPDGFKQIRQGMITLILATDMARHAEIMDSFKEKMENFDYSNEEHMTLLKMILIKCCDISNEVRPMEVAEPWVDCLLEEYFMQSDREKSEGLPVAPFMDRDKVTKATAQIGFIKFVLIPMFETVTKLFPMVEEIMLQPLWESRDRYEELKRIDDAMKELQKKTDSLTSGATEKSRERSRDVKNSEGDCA
measure.name: IC50

1. COc1cc(-c2cccnc2)cc2c1nc(C)c1c(C)nc(-c3cccnc3F)n12 = > 1 µM
2. COc1cc(-c2cccnc2)cc2c1nc(C)c1c(C)nc(-c3ccc(F)nc3)n12 = > 1 µM
3. COc1cc(-c2ccncc2)cc2c1nc(C)c1c(C)nc(-c3ccc(F)nc3)n12 = > 1 µM
4. COc1cc(-c2ccc(F)nc2)cc2c1nc(C)c1c(C)nc(-c3ccncc3)n12 = > 1 µM
5. COc1cc(-c2ccc(F)nc2)cc2c1nc(C)c1c(C)nc(-c3cccnc3)n12 = > 1 µM
6. COc1cc(-c2cccnc2)cc2c1nc(C)c1c(C)nc(-c3cccnc3)n12 = > 1 µM
7. COc1cc(-c2ccc(F)nc2)cc2c1nc(C)c1c(C)nc(-c3ccc(F)nc3)n12 = > 1 µM
8. COc1cc(Br)cc2c1nc(C)c1c(C)nc(-c3cccnc3F)n12 = > 1 µM
9. COc1cc(Br)cc2c1nc(C)c1c(C)nc(-c3ccc(F)nc3)n12 = > 1 µM

----------
Molecular target: Dual 3',5'-cyclic-AMP and -GMP phosphodiesterase 11A (Homo sapiens, UniProt Q9HCR9)
Sequence (Q9HCR9 whole entry): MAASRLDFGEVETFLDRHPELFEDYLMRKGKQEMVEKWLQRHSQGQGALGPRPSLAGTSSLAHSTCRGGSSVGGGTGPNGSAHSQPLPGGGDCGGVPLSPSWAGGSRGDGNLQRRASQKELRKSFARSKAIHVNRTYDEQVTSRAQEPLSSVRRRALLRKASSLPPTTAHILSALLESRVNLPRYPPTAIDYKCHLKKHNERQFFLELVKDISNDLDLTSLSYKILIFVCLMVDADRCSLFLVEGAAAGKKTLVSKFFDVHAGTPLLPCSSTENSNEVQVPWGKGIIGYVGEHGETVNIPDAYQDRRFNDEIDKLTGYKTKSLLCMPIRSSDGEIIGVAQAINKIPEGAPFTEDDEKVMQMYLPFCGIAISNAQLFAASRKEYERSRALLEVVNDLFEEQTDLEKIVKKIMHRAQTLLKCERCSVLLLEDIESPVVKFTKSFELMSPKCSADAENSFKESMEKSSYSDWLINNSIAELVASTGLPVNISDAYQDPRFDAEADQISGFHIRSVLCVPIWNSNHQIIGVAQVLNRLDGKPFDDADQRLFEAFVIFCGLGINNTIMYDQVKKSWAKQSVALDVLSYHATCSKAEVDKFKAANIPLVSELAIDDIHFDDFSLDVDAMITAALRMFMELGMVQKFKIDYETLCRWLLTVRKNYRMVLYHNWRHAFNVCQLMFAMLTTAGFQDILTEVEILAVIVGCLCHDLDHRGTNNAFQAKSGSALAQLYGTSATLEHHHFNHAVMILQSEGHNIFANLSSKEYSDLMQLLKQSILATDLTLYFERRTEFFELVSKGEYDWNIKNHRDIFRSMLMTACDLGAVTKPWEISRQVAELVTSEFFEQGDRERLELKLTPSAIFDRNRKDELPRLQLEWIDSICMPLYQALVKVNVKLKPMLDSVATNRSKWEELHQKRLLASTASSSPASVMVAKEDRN
Experiment: Inhibition of human PDE11A using [3H]cAMP as substrate after 30 mins by scintillation proximity assay
pIC50: −log10 of the molar value.
Listed here are molecules together with their documented pIC50.
measure.name: pIC50

1. COc1cc(-c2cccnc2)cc2c1nc(C)c1c(C)nc(-c3cccnc3)n12 = 6.54
2. COc1cc(-c2cccnc2)cc2c1nc(C)c1c(C)nc(-c3cccnc3F)n12 = 6.34

----------
Molecular target: cGMP-dependent 3',5'-cyclic phosphodiesterase (Homo sapiens, UniProt O00408)
Assay: Inhibition of cGMP activated human recombinant PDE2A using [3H]cAMP as substrate after 30 mins by scintillation proximity assay
pIC50: −log10 of the molar value.
measure.name: pIC50

1. COc1cc(-c2cccnc2)cc2c1nc(C)c1c(C)nc(-c3cccnc3F)n12 = 8.46
2. COc1cc(Br)cc2c1nc(C)c1c(C)nc(-c3cccnc3F)n12 = 7.62
3. COc1cc(-c2cccnc2)cc2c1nc(C)c1c(C)nc(-c3ccnc(F)c3)n12 = 7.33
4. COc1cc(-c2cccnc2)cc2c1nc(C)c1c(C)nc(-c3ccc(F)nc3)n12 = 7.10

----------
Reported Ratio IC50 values for a set of compounds
Species: Homo sapiens
Assay: Selectivity factor, ratio of IC50 for human recombinant PDE2A to IC50 for human recombinant PDE10A1
measure.name: Ratio IC50

1) COc1cc(-c2ccc(F)nc2)cc2c1nc(C)c1c(C)nc(Br)n12 = > 97
2) COc1cc(-c2ccc(F)nc2)cc2c1nc(C)c1c(C)ncn12 = > 38
3) COc1cc(C#N)cc2c1nc(C)c1c(C)nc(-c3ccc(F)nc3)n12 = > 49
4) COc1cc(Br)cc2c1nc(C)c1c(C)nc(-c3ccnc(F)c3)n12 = > 312
5) COc1cc(Br)cc2c1nc(C)c1c(C)nc(-c3ccc(F)nc3)n12 = > 339
